target.system: Jak2 kinase (Homo sapiens)
Construct: Jak2 kinase was immunoprecipitated from a 1% Triton-X100 lysate of 10x10^6 G2 cells; endogenous in cells; host or cells: G2 pre-B leukemia cell line
assay.comment: in vitro kinase assay on Jak2 immunoprecipitated from G2 cell lysate
Format: biochemical
recorded.conditions: 25µM tyrphostin; scanning autoradiographs of the kinase assays
observable: %inhibition of kinase activity
Field: value (include unit after the number)

Qu. # %inhibition of kinase activity lookup, item N#C/C(=C\c1cc(O)c(O)c(CSCCCc2ccccc2)c1)C(=O)NCc1ccccc1
Ans. 5%

Qu. # input compound: N#C/C(=C\c1cc(O)c(O)c(CSCc2ccccc2)c1)C(=O)NCc1ccccc1 ; wanted: its %inhibition of kinase activity
Ans. 14%

Qu. Any idea what %inhibition of kinase activity was measured for N#C/C(=C\c1cc(O)c(O)c(CSc2ccccc2)c1)C(=O)NCc1ccccc1 ?
Ans. 13%

Qu. Please look up its %inhibition of kinase activity: N#C/C(=C\c1cc(O)c(O)c(CSCCc2ccccc2)c1)C(=O)NCc1ccccc1
Ans. 0%

---

Catalogue of %inhibition of kinase activity readings, one per entry.
target.system: Jak2 kinase (Homo sapiens)
Construct: Jak2 kinase was immunoprecipitated from a 1% Triton-X100 lysate of 10x10^6 G2 cells; endogenous in cells; host or cells: G2 pre-B leukemia cell line
assay.comment: in vitro kinase assay on Jak2 immunoprecipitated from G2 cell lysate
Assay type: biochemical
recorded.conditions: 50µM tyrphostin; scanning autoradiographs of the kinase assays
Protocol: Compounds chosen on the basis of their ability to inhibit the growth (colony formation) of the pre-B leukemia cell line G2 were tested for inhibition of Jak2 kinase. Jak2 kinase was immunoprecipitated from a 1% Triton-X100 lysate of 10x10^6 G2 cells. An in vitro kinase assay was performed on the immunoprecipitated Jak2 in the presence or absence of varying concentrations of the compounds AG 1977, AG 1978, AG 2009 and AG 2010. […]
Report the figure in % without appending any unit label.

Worked cases, answers included:
{"columns": ["chemical.smiles", "%inhibition of kinase activity, %"],
 "data": [
  ["N#C/C(=C\\c1cc(O)c(O)c(CSc2ccccc2)c1)C(=O)NCc1ccccc1", 46],
  ["N#C/C(=C\\c1cc(O)c(O)c(CSCCCc2ccccc2)c1)C(=O)NCc1ccccc1", 39],
  ["N#C/C(=C\\c1cc(O)c(O)c(CSCCc2ccccc2)c1)C(=O)NCc1ccccc1", 8]
]}

Now consider a different compound.
Qu. Which %inhibition of kinase activity value is on record for N#C/C(=C\c1cc(O)c(O)c(CSCc2ccccc2)c1)C(=O)NCc1ccccc1 ?
Ans. 15

---

target.system: Jak2 kinase (Homo sapiens, UniProt O60674)
Construct: Jak2 kinase was immunoprecipitated from a 1% Triton-X100 lysate of 10x10^6 G2 cells; endogenous in cells; host or cells: G2 pre-B leukemia cell line
Sequence (O60674 whole entry): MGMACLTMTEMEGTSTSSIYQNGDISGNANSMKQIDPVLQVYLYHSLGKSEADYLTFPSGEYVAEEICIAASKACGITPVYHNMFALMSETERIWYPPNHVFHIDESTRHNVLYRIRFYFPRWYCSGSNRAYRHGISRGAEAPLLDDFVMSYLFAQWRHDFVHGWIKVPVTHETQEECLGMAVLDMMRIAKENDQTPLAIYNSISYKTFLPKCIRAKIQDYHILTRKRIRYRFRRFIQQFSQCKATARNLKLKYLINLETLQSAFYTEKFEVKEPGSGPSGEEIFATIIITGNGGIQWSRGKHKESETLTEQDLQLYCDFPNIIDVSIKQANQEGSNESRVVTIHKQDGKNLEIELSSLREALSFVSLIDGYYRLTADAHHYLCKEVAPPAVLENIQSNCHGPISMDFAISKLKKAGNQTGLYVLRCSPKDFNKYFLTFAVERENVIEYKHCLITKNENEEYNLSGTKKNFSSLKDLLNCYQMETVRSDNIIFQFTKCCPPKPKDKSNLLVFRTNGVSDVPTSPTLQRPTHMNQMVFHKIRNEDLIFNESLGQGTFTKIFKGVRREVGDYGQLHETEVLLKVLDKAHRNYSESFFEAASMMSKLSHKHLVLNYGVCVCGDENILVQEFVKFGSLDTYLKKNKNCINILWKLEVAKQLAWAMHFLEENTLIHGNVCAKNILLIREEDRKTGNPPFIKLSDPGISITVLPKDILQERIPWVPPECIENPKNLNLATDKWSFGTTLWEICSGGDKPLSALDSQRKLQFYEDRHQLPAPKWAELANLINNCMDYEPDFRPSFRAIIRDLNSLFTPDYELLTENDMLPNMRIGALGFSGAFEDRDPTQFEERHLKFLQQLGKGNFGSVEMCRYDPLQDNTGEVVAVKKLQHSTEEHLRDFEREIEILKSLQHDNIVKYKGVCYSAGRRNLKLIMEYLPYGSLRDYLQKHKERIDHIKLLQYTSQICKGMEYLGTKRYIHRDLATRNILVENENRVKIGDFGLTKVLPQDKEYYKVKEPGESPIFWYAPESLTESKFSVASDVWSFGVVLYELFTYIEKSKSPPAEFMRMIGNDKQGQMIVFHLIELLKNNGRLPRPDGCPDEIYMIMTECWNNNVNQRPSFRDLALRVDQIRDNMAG
assay.comment: in vitro kinase assay on Jak2 immunoprecipitated from G2 cell lysate
Assay type: biochemical
recorded.conditions: 5µM tyrphostin; scanning autoradiographs of the kinase assays
Catalogue of compounds with associated %inhibition of kinase activity
Respond with the bare value in %.

Observe how each entry below is paired with its result.
{"columns": ["chemical.smiles", "readout.units", "%inhibition of kinase activity"],
 "data": [
  ["N#C/C(=C\\c1cc(O)c(O)c(CSCCc2ccccc2)c1)C(=O)NCc1ccccc1", "%", 0],
  ["N#C/C(=C\\c1cc(O)c(O)c(CSc2ccccc2)c1)C(=O)NCc1ccccc1", "%", 10],
  ["N#C/C(=C\\c1cc(O)c(O)c(CSCc2ccccc2)c1)C(=O)NCc1ccccc1", "%", 23]
]}

Consider the record given below.
Qu. Which %inhibition of kinase activity is reported for this compound? N#C/C(=C\c1cc(O)c(O)c(CSCCCc2ccccc2)c1)C(=O)NCc1ccccc1
Ans. 5
